# System: coxsackie B1 virus
# MEASUREMENT PROTOCOL: In vitro CPE assay in mammalian cell culture, B1
# Assay type: cell-based
# CONDITION SUMMARY: viral cytopathic effect in mammalian cell culture, read-out: B1 inhibition capacity (IC50)
pIC50: −log10 of the molar value.
RESULT TYPE: pIC50

[[record]]
smiles_entry = "Cc1cc(NCc2ccc(S(C)(=O)=O)cc2)n2nc(C)c(-c3ccc4c(c3)c(C)nn4C)c2n1"
result_value = "> 8.00"

[[record]]
smiles_entry = "Cc1cc(NCc2ccc(S(N)(=O)=O)cc2)n2nc(C)c(-c3ccc4c(c3)c(C)nn4C)c2n1"
result_value = "> 6.00"

[[record]]
smiles_entry = "Cc1ccc(CNc2nc(C)nc3c(-c4ccc5c(c4)c(C)nn5C)c(C)nn23)cn1"
result_value = "> 8.00"

[[record]]
smiles_entry = "Cc1ccc(CNc2cc(C)nc3c(-c4ccc5c(c4)c(C)nn5C)c(C)nn23)cn1"
result_value = "> 8.00"

[[record]]
smiles_entry = "Cc1nc(NCc2ccc(S(C)(=O)=O)cc2)n2nc(C)c(-c3ccc4c(c3)c(C)nn4C)c2n1"
result_value = "> 8.00"

[[record]]
smiles_entry = "Cc1nc(NCc2ccc(NS(C)(=O)=O)cc2)n2nc(C)c(-c3ccc4c(c3)c(C)nn4C)c2n1"
result_value = "> 8.00"

[[record]]
smiles_entry = "Cc1cc(NCc2ccc(Cl)cc2)n2nc(C)c(-c3ccc4c(c3)c(C)nn4C)c2n1"
result_value = "> 6.00"

[[record]]
smiles_entry = "COc1ccc(CNc2cc(C)nc3c(-c4ccc5c(c4)c(C)nn5C)c(C)nn23)cn1"
result_value = "> 6.00"

[[record]]
smiles_entry = "Cc1nc(NCc2ccc(S(N)(=O)=O)cc2)n2nc(C)c(-c3ccc4c(c3)c(C)nn4C)c2n1"
result_value = "> 7.00"

[[record]]
smiles_entry = "Cc1nc(NCc2cccs2)n2nc(C)c(-c3ccc4c(c3)c(C)nn4C)c2n1"
result_value = "> 9.00"

[[record]]
smiles_entry = "COc1ccc(CNc2cc(C)nc3c(-c4ccc5c(c4)c(C)nn5C)c(C)nn23)cc1"
result_value = "> 6.00"

[[record]]
smiles_entry = "COc1ccc(CNc2nc(C)nc3c(-c4ccc5c(c4)c(C)nn5C)c(C)nn23)cc1"
result_value = "> 6.00"

[[record]]
smiles_entry = "Cc1cc(NCc2ccncc2)c2nc(C)c(-c3ccc4c(c3)c(C)nn4C)n2n1"
result_value = "> 8.00"

[[record]]
smiles_entry = "Cc1cc(NCc2ccc(NS(C)(=O)=O)cc2)n2nc(C)c(-c3ccc4c(c3)c(C)nn4C)c2n1"
result_value = "> 6.00"

[[record]]
smiles_entry = "Cc1cc(NCc2cccs2)c2nc(C)c(-c3ccc4c(c3)c(C)nn4C)n2n1"
result_value = "> 9.00"

[[record]]
smiles_entry = "COc1ccc(CNc2cc(C)nn3c(-c4ccc5c(c4)c(C)nn5C)c(C)nc23)cc1"
result_value = "> 6.00"

[[record]]
smiles_entry = "Cc1cc(NCc2ccncc2)n2nc(C)c(-c3ccc4c(c3)c(C)nn4C)c2n1"
result_value = "> 10.00"

[[record]]
smiles_entry = "COc1ccc(CNc2nc(C)nc3c(-c4ccc5c(c4)c(C)nn5C)c(C)nn23)cn1"
result_value = "> 8.00"

[[record]]
smiles_entry = "Cc1cc(NCc2ccc(Cl)cc2)c2nc(C)c(-c3ccc4c(c3)c(C)nn4C)n2n1"
result_value = "> 7.00"

[[record]]
smiles_entry = "Cc1nc(NCc2ccc(Cl)cc2)n2nc(C)c(-c3ccc4c(c3)c(C)nn4C)c2n1"
result_value = "> 7.00"

[[record]]
smiles_entry = "Cc1nc(NCc2ccncc2)n2nc(C)c(-c3ccc4c(c3)c(C)nn4C)c2n1"
result_value = "> 9.00"

